tested on: Influenza A virus; assay: Antiviral activity against Influenza A virus (A/HK/68) by CCK-8 reagent based assay; format: functional, organism-based
Calls of active or inactive are those of the source. The calls are words filed in the database; no cut-off is given here.

compound: CCc1ccsc1CN[C@@H]1CC2CC([C@H]1C)C2(C)C (single isomer, unassigned)
Activity: Active

compound: Cc1ccc(CN[C@@H]2CC3CC([C@H]2C)C3(C)C)s1 (single isomer, unassigned)
Activity: Active

compound: CCCc1csc(CN[C@@H]2CC3CC([C@H]2C)C3(C)C)c1 (single isomer, unassigned)
Activity: Active

compound: CCCc1ccsc1CN[C@@H]1CC2CC([C@H]1C)C2(C)C (single isomer, unassigned)
Activity: Active

compound: C[C@@H]1C2CC(C[C@H]1NCc1ccsc1)C2(C)C (single isomer, unassigned)
Activity: Active

compound: C[C@@H]1C2CC(C[C@H]1NCc1cccs1)C2(C)C (single isomer, unassigned)
Activity: Active

compound: C[C@@H]1C2CC(C[C@H]1NCc1cc(C3CC3)cs1)C2(C)C (single isomer, unassigned)
Activity: Active

compound: C=Cc1ccsc1CN[C@@H]1CC2CC([C@H]1C)C2(C)C (single isomer, unassigned)
Activity: Active

compound: C[C@@H]1C2CC(C[C@H]1NCc1cc(Br)cs1)C2(C)C (single isomer, unassigned)
Activity: Active

compound: C[C@@H]1C2CC(C[C@H]1NCc1sccc1C1CC1)C2(C)C (single isomer, unassigned)
Activity: Active

compound: Cc1ccsc1CN[C@@H]1C[C@H]2C[C@@H]([C@H]1C)C2(C)C
Activity: Active

compound: CSc1ccc(CN[C@@H]2CC3CC([C@H]2C)C3(C)C)s1 (single isomer, unassigned)
Activity: Active

compound: Cc1csc(CN[C@@H]2CC3CC([C@H]2C)C3(C)C)c1 (single isomer, unassigned)
Activity: Active

compound: CCOc1ccsc1CN[C@@H]1CC2CC([C@H]1C)C2(C)C (single isomer, unassigned)
Activity: Active

compound: C[C@@H]1C2CC(C[C@H]1NCc1sccc1Br)C2(C)C (single isomer, unassigned)
Activity: Active

compound: Cc1csc(CN[C@@H]2CC3CC([C@H]2C)C3(C)C)n1 (single isomer, unassigned)
Activity: Active

compound: C=Cc1csc(CN[C@@H]2CC3CC([C@H]2C)C3(C)C)c1 (single isomer, unassigned)
Activity: Active

compound: CCCCc1ccsc1CN[C@@H]1CC2CC([C@H]1C)C2(C)C (single isomer, unassigned)
Activity: Active

###

assay: Cytotoxicity against MDCK cells assessed as change in cell morphology after 48 hrs by microscopic analysis; assay type: cell-based, Canis lupus familiaris; details: dog
valueKind: MCC at 48 h (µM)

compound: C[C@@H]1C2CC(C[C@H]1NCc1sccc1C1CC1)C2(C)C (single isomer, unassigned)
valueKind: MCC at 48 h
resultNumber: 25

###

system: Influenza A virus; test: Antiviral activity against Influenza A virus (A/PR/8/34 (H1N1)) infected in MDCK cells assessed as reduction in virus-induced cytopathic effect after 48 hrs by microscopic analysis; format: functional, organism-based; settings: A/Puerto Rico/8/1934(H1N1)

molecule: CCOC(=O)C1=C[C@@H](OC(CC)CC)[C@H](NC(C)=O)[C@@H](N)C1 [OSELTAMIVIR]
resultModifier: =
EC50 (µM): 0.13

molecule: NC12CC3CC(CC(C3)C1)C2 [AMANTADINE]
resultModifier: >
EC50 (µM): 100

molecule: C[C@@H]1C2CC(C[C@H]1NCc1sccc1C1CC1)C2(C)C (single isomer, unassigned)
resultModifier: =
EC50 (µM): 2.23

###

Catalogue of pEC50 values
system: Influenza A virus; test: Antiviral activity against Influenza A virus (A/duck/HK/Y280/97 (H9N2)) infected in MDCK cells assessed as reduction in virus-induced cytopathic effect after 48 hrs by microscopic analysis; assay type: functional, organism-based
pEC50: −log10 of the molar value.
valueKind: pEC50

compound: CCOC(=O)C1=C[C@@H](OC(CC)CC)[C@H](NC(C)=O)[C@@H](N)C1 [OSELTAMIVIR]
resultModifier: <
resultNumber: 5.00

compound: C[C@@H]1C2CC(C[C@H]1NCc1sccc1C1CC1)C2(C)C (single isomer, unassigned)
resultModifier: =
resultNumber: 5.17

###

molecular target: Hemagglutinin (Influenza A virus (strain A/Aichi/2/1968 H3N2)); experiment: Inhibition of Influenza A virus A/Aichi/2/68 (H3N2) HA2-mediated hemolysis preincubated with virus for 30 mins followed by chicken red blood cells addition measured after 30 mins by spectrophotometric analysis
valueKind: IC50 (nM)

compound: C[C@@H]1C2CC(C[C@H]1NCc1sccc1C1CC1)C2(C)C (single isomer, unassigned)
valueKind: IC50
unitAnnotation: nM
resultNumber: 1230
